- assay.system: T1, biotin-labeled human CD137 fused to human IgG1 Fc fragment (human, biotin-labeled)
- T1 construct: Immobilised on streptavidin beads through biotin; also called human CD137-Fc; biotin-human CD137-Fc
- test.method.notes: competitive bead ELISA, decrease of signal on biotin-human CD137-Fc with 125 pmol/well free CD3 epsilon peptide against 0
Exercise: state measured Signal decrease for each of the binders provided.
Only the number, expressed in %, is required.

## Task Could you share which Signal decrease value was measured for dBBDu197 (antibody, human IgG1, V domains shown, IgG: VH joined to human IgG1 CH1-Fc, GLS3000 as light chain) VH: QVQLVESGGGLVQPGRSLRLSCAASGFTFSNAWMHWVRQAPGKGLEWVAQIKDRSNAYAAYYAPSVKGRFTISRDDSKNSIYLQMNSLKTEDTAVYYCHYVHYASASTVLPAFGVDAWGQGTTVTVSS VL: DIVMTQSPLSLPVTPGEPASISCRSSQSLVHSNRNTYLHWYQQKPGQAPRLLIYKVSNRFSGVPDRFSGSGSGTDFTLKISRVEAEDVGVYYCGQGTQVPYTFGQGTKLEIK ?
## Result 96.1

## Task Also dBBDu173 (antibody, human IgG1, V domains shown, IgG: VH joined to human IgG1 CH1-Fc, GLS3000 as light chain) VH: QVQLVESGGGLVQPGRSLRLSCAASGFTFSNAWMHWVRQAPGKGLEWVAQIKDKGNLYAAYYAPSVKGRFTISRDDSKNSIYLQMNSLKTEDTAVYYCHYVHYASAGGGLSAYGVDAWGQGTTVTVSS VL: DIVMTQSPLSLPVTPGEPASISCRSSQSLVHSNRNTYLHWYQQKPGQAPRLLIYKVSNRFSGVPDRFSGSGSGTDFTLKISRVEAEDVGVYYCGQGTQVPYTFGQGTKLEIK ?
## Result 68.8

## Task Also dBBDu189 (antibody, human IgG1, V domains shown, IgG: VH joined to human IgG1 CH1-Fc, GLS3000 as light chain) VH: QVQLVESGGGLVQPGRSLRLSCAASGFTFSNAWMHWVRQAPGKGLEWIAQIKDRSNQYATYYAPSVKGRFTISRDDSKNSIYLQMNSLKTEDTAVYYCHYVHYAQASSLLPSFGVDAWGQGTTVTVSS VL: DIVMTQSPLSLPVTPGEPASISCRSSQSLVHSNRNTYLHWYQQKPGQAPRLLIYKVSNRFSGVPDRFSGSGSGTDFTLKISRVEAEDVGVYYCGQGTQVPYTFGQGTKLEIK ?
## Result 92
